biological target: ALK wild type (Homo sapiens, UniProt Q9UM73); construct: purchased Carna Biosciences (Chuo-ku, Kobe, Japan); experiment: Off-chip mobility shift assay (Carna Biosciences), ALK wild type; format: biochemical; details: footnote #: ALK wild type; read-out: IC50 ALK Kinase (# ALK wild type)
Sequence (Q9UM73 19-1620): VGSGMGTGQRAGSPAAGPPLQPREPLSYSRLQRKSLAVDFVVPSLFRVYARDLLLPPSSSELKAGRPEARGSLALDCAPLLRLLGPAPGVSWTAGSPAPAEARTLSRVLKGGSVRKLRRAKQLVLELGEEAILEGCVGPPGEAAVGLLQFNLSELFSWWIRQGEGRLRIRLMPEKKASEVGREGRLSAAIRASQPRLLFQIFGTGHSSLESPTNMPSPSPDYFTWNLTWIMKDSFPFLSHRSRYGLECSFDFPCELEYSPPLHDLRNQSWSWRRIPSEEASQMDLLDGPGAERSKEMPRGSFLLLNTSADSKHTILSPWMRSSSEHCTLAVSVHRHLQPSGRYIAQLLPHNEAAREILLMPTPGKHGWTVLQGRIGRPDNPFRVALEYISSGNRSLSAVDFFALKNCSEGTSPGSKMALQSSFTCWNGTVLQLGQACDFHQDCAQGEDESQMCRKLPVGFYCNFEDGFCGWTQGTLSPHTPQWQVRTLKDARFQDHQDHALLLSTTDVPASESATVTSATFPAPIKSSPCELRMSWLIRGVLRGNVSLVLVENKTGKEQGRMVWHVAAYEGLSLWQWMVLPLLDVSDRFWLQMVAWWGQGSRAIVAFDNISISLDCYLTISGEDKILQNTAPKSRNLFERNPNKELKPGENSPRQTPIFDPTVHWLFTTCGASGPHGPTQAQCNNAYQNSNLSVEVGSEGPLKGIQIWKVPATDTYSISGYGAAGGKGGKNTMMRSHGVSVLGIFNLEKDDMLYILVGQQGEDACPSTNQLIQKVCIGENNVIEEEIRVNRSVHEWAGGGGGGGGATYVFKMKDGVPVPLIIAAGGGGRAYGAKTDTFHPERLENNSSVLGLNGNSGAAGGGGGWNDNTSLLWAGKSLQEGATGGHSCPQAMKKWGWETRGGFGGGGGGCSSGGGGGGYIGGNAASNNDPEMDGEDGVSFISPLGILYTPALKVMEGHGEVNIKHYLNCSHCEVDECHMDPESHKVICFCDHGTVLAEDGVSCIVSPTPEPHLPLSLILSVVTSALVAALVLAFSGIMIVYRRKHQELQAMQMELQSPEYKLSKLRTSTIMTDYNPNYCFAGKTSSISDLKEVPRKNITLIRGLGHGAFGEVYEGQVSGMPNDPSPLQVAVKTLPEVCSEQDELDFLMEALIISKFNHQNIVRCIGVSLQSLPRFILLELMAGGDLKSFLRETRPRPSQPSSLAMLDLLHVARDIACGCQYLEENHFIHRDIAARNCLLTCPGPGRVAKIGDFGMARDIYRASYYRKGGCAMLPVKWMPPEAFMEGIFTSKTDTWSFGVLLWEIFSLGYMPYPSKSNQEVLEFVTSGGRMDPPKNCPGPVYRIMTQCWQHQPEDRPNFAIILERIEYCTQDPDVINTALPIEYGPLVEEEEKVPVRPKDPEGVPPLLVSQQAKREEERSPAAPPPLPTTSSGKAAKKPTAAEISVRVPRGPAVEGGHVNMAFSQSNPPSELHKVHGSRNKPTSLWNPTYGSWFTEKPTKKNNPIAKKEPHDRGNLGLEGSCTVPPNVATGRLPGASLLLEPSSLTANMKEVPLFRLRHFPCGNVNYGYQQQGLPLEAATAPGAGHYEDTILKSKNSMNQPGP
readout_name: IC50

* C[C@@H](Oc1cc(-c2ccc(P(C)(C)=O)cc2F)cnc1N)c1c(Cl)ccc(F)c1Cl | < 100 nM

Now take the following molecule into account.
Q. Provide the documented IC50 with ALK wild type (Homo sapiens, UniProt Q9UM73) as the system for "COc1cc(P(C)(C)=O)ccc1-c1cnc(N)c(O[C@H](C)c2c(Cl)ccc(F)c2Cl)c1"
A. < 100 nM

----------
target: ALK mutant R1275Q (Homo sapiens, UniProt Q9UM73, R1275Q); construct: purchased Carna Biosciences (Chuo-ku, Kobe, Japan); assay: Off-chip mobility shift assay (Carna Biosciences), ALK R1275Q; assay type: biochemical; details: mobility shift, ATP 100 μM; read-out: IC50 ALK R1275Q
Sequence (Q9UM73 19-1620 R1275Q): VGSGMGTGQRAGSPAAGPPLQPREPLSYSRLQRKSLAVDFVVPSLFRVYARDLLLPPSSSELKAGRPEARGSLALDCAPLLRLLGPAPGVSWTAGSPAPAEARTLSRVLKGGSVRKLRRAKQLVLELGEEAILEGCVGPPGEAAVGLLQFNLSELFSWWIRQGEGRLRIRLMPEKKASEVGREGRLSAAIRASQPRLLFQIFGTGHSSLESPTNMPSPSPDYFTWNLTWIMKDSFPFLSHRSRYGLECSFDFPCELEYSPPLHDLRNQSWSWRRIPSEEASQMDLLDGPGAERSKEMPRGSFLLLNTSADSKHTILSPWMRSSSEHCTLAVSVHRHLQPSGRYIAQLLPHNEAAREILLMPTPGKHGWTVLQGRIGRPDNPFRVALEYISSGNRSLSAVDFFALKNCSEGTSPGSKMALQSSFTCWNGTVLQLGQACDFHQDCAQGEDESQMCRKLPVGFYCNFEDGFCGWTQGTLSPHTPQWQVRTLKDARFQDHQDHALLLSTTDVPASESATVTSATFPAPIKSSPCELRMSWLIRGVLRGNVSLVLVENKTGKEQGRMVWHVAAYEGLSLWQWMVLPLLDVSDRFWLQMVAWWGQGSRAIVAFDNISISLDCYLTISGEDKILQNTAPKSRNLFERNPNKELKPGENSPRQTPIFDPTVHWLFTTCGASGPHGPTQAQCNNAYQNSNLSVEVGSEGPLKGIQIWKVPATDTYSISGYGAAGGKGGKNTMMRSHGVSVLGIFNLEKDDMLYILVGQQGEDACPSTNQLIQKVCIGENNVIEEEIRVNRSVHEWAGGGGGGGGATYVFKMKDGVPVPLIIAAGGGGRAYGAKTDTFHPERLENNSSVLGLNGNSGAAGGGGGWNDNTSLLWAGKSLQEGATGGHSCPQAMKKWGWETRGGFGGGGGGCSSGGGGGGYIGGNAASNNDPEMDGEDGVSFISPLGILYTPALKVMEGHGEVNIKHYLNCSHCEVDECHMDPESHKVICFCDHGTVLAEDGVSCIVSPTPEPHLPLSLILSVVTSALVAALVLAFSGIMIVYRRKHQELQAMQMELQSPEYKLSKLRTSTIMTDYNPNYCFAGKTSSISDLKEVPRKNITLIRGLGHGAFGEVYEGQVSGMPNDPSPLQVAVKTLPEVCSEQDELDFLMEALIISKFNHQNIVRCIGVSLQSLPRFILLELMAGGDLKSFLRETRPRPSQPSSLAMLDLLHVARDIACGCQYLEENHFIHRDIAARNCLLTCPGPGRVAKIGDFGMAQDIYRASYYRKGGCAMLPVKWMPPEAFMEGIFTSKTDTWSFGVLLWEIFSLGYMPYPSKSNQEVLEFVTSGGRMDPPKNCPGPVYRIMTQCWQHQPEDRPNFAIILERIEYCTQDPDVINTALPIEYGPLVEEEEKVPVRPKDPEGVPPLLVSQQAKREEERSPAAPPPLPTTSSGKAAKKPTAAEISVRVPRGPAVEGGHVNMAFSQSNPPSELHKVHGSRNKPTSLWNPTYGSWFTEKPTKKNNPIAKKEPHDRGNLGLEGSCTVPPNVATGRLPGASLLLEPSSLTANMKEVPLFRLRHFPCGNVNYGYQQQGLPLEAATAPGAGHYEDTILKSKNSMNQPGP
readout_name: IC50

• COc1cc(P(C)(C)=O)ccc1-c1cnc(N)c(O[C@H](C)c2c(Cl)ccc(F)c2Cl)c1 = < 0.05 µM

Now take the following compound into account.
Q. Provide the documented IC50 with ALK mutant R1275Q (Homo sapiens, UniProt Q9UM73, R1275Q) as the system for "C[C@@H](Oc1cc(-c2ccc(P(C)(C)=O)cc2F)cnc1N)c1c(Cl)ccc(F)c1Cl"
A. < 0.05 µM

----------
target: EML4-ALK (Homo sapiens, UniProt Q9UM73); construct: purchased Carna Biosciences (Chuo-ku, Kobe, Japan); the other entry of the earlier key: EML4 (Q9HC35, Echinoderm microtubule-associated protein-like 4); assay: Off-chip mobility shift assay (Carna Biosciences), EML4-ALK; type: biochemical; conditions: mobility shift, ATP 50 μM; read-out: IC50 EML4-ALK
Sequence (Q9UM73 with tags, fused parts or gaps): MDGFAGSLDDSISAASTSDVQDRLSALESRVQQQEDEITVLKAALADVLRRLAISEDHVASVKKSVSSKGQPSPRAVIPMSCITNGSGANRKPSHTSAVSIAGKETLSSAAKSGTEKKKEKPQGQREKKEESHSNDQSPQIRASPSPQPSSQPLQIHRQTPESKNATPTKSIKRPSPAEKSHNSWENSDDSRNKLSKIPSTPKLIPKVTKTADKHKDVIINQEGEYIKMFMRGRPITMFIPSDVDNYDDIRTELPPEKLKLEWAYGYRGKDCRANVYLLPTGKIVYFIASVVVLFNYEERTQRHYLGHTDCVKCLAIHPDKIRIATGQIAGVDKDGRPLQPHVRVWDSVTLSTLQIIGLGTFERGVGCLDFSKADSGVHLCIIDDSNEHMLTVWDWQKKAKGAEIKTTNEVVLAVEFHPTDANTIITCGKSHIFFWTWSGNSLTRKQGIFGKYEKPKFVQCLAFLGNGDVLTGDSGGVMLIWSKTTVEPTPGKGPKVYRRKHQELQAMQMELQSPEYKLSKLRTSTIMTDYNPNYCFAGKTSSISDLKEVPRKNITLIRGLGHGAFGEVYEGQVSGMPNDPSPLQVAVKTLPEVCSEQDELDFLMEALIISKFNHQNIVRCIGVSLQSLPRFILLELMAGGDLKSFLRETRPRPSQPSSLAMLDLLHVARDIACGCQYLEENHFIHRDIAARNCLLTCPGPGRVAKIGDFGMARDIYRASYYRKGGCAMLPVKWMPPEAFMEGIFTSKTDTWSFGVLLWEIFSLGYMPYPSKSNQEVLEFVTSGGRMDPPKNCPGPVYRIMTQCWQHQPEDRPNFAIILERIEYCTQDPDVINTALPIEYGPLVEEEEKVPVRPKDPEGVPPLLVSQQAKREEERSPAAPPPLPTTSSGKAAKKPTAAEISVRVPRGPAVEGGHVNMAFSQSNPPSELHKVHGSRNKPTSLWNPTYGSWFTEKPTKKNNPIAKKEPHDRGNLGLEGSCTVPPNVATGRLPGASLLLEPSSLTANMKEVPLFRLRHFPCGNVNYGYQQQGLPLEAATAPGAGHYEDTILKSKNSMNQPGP
pIC50: −log10 of the molar value.
readout_name: pIC50

• C[C@@H](Oc1cc(-c2ccc(P(C)(C)=O)cc2F)cnc1N)c1c(Cl)ccc(F)c1Cl [Example 25] = > 7.30

Now take the following compound into account.
Q. For the compound shown here, COc1cc(P(C)(C)=O)ccc1-c1cnc(N)c(O[C@H](C)c2c(Cl)ccc(F)c2Cl)c1 [Example 24] , give the reported pIC50.
A. > 7.30
